Measurement context: PAMPA-BBB, PBS:EtOH 70:30; mean ± SD of three independent experiments
Quantity: Pe

• N#Cc1ccc(-c2nc3cc(Cl)ccc3c3c2CCCN3)cc1 = 16.2 ± 0.1 10^−6 cm s^−1
• OCCCc1cc2cc(Cl)ccc2nc1-c1cccs1 = 28.4 ± 1.2 10^−6 cm s^−1
• NCc1ccc(-c2nc3cc(Cl)ccc3c3c2CCCN3)cc1 = 4.0 ± 1.0 10^−6 cm s^−1
• Clc1ccc2nc(-c3cccs3)c3c(c2c1)OCCC3 = 14.4 ± 1.6 10^−6 cm s^−1
• N#Cc1ccc(-c2nc3ccc(Cl)cc3c3c2CCCN3)cc1 = 14.3 ± 0.1 10^−6 cm s^−1
• NCc1ccc(-c2nc3ccc(Cl)cc3c3c2CCCO3)cc1 = 15.5 ± 1.8 10^−6 cm s^−1
• N#CCCc1cc2cc(Cl)ccc2nc1-c1cccs1 = 17.9 ± 1.1 10^−6 cm s^−1
• N#Cc1ccc(-c2nc3ccc(Cl)cc3c3c2CCCO3)cc1 = 29.7 ± 3.8 10^−6 cm s^−1
• N#Cc1ccc(-c2nc3cc(Cl)ccc3cc2CCCN)cc1 = 18.3 ± 0.6 10^−6 cm s^−1
• Clc1ccc2nc(-c3cccs3)c(CCCN3CCCC3)cc2c1 = 12.9 ± 0.1 10^−6 cm s^−1
• Clc1ccc2nc(-c3ccco3)c3c(c2c1)OCCC3 = 3.5 ± 0.4 10^−6 cm s^−1
• N#Cc1ccc(-c2nc3ccc(Cl)cc3c3c2CCN3)cc1 = 6.8 ± 0.3 10^−6 cm s^−1
• NCc1ccc(-c2nc3ccc(Cl)cc3c3c2CCCN3)cc1 = 4.6 ± 0.2 10^−6 cm s^−1
• CCN(CC)CCCc1cc2cc(Cl)ccc2nc1-c1cccs1 = 20.9 ± 0.5 10^−6 cm s^−1
• OCCCc1cc2cc(Cl)ccc2nc1-c1ccco1 = 10.3 ± 1.5 10^−6 cm s^−1

###

Experimental details: in vitro
Measurement context: rat, rat skeletal muscle L6 cells, SITc: selectivity index as the ratio of cytotoxic to anti-T. cruzi IC50 values, L6 IC50 / T. cruzi IC50
# maps each entry to its selectivity ratio at 6 days
Quantity: selectivity ratio at 6 days

- CCN(CC)CCCc1cc2cc(Cl)ccc2nc1-c1cccs1: 0.2
- NCc1ccc(-c2nc3ccc(Cl)cc3c3c2CCCN3)cc1: 0.2
- N#Cc1ccc(-c2nc3ccc(Cl)cc3c3c2CCCO3)cc1: 0.2
- N#Cc1ccc(-c2nc3ccc(Cl)cc3c3c2CCCN3)cc1: 0.3
- NCc1ccc(-c2nc3ccc(Cl)cc3c3c2CCN3)cc1: 0.1
- N#Cc1ccc(-c2nc3cc(Cl)ccc3cc2CCCN)cc1: 0.3
- Clc1ccc2nc(-c3cccs3)c(CCCN3CCCC3)cc2c1: 0.3
- NCc1ccc(-c2nc3ccc(Cl)cc3c3c2CCCO3)cc1: 0.2
- NCc1ccc(-c2nc3ccc(Cl)cc3c3c2CCCCN3)cc1: 0.2
- NCc1ccc(-c2nc3ccc(Cl)cc3c3c2CCCN3Cc2ccccc2)cc1: 0.7
- NCc1ccc(-c2nc3cc(Cl)ccc3c3c2CCCN3)cc1: 0.04

###

Experimental details: in vitro
Measurement context: pig, PAMPA
Quantity: Papp (nm/s)

• CCn1cc(C(=O)O)c(=O)c2cc(F)c(N3CCNCC3)cc21 [Norfloxacin] = 9
